Target: T1, 4H3112-bN
T1 chain: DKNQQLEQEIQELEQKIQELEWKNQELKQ
Experiment: two-hybrid library CCNG1;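 also: natural log of median RNA to DNA barcode read ratio; higher means stronger binding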
Rule: interaction score below -0.4 gives label 1. Equal to or above -0.4 gives label 0.

>>> category_label("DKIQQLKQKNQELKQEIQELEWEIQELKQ [4H3010-bN]")
"label 1"
>>> category_label("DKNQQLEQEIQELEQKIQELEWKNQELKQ [4H3112-bN]")
"label 1"
>>> category_label("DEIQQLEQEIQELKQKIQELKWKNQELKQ [4H112-bN]")
"label 0"
>>> category_label("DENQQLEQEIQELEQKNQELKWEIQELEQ [4H1081-bN]")
"label 1"
>>> category_label("DKIQQLKQEIQELKQEIQELEWENQELEQ [4H2627-bN]")
"label 1"
>>> category_label("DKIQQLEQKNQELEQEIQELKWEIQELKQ [4H2442-bN]")
"label 1"
>>> category_label("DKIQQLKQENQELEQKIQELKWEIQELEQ [4H2729-bN]")
"label 0"
>>> category_label("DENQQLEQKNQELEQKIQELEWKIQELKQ [4H1446-bN]")
"label 0"
>>> category_label("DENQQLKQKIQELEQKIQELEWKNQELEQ [4H1831-bN]")
"label 1"
>>> category_label("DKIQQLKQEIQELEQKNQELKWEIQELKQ [4H2618-bN]")
"label 1"
>>> category_label("DKIQQLKQEIQELKQKNQELEWEIQELEQ [4H2673-bN]")
"label 1"
>>> category_label("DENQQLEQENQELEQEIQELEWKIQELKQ [4H1158-bN]")
"label 0"
>>> category_label("DKIQQLKQEIQELEQKNQELKWENQELEQ [4H2619-bN]")
"label 0"
>>> category_label("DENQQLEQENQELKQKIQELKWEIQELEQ [4H1257-bN]")
"label 1"
